test system: HUVECs; test: High-content imaging cytotoxicity in HUVECs, 24 h; format: cell-based, human; conditions: Homo sapiens, HUVEC, 24 h, HUVECs, 24 hr; top concentration 100.00 µM; read-out: huvec.mitoint.24hr POD
Counter-ions that a name gives are not always drawn.
Measured Property: minimal effective concentration (µM)

[[record]]
molecule = "O=S(=O)(O)Oc1cc(Cl)ccc1-c1ccccc1 [2-yl PCB 3 sulfate]"
units_label = "µM"
measured = 100

[[record]]
molecule = "Oc1cccc(-c2ccc(Cl)cc2)c1"
units_label = "µM"
measured = 41.4

[[record]]
molecule = "Clc1ccc(Cl)c(-c2cc(Cl)ccc2Cl)c1"
units_label = "µM"
measured = 6.01

[[record]]
molecule = "Clc1ccc(-c2ccccc2)cc1"
units_label = "µM"
measured = 100

[[record]]
molecule = "COc1ccc(-c2ccc(Cl)cc2)cc1"
units_label = "µM"
measured = 32

[[record]]
molecule = "O=S(=O)(O)Oc1cc(-c2ccccc2)ccc1Cl [3-yl PCB 3 sulfate]"
units_label = "µM"
measured = 100

[[record]]
molecule = "O=C1C=CC(=O)C(c2ccc(Cl)cc2)=C1"
units_label = "µM"
measured = 0.68

[[record]]
molecule = "Oc1ccccc1-c1ccc(Cl)cc1"
units_label = "µM"
measured = 34.4

[[record]]
molecule = "Oc1ccc(-c2cccc(Cl)c2)cc1Cl"
units_label = "µM"
measured = 5.43


###

Listed below: activity at 100 µM values for each entry.
Test system: iCell cardiomyocytes (human iPSC-derived cardiomyocytes)
Test: Intracellular Ca2+ flux / beating parameters in iCell cardiomyocytes (FLIPR tetra), 90 min or 24 h
Type: cell-based
Settings: Homo sapiens, Cardiomyocyte, 1.5 h, 100.00 µM; 0.00 µM = 100.00; read-out: cm.bpm.90min
Description: Details on cardiomyocyte cell culture are described in detail elsewhere ([Grimm et al. 2015b]; [Sirenko et al. 2013a]). […] Live cell counts for each cell suspension were determined by trypan blue staining and cells were further diluted to provide final cell densities of 2×10^5 viable cells/ml. […] Responses of iCell®-cardiomyocytes to drugs and chemicals were evaluated using intracellular Ca^2+ flux measurements ([Grimm et al. 2015b]; [Sirenko et al. 2013b]). […]
Structures can show the parent of a compound that is named as a salt.
Measured Property: activity at 100 µM (%)

[[record]]
compound = "O=C1C=CC(=O)C(c2ccc(Cl)cc2)=C1 [4-Cl-BQ, 2-(4-Chlorophenyl)benzo-2,5-quinone]"
measured_property = "activity at 100 µM"
units_label = "%"
measured = 0

[[record]]
compound = "Oc1ccc(-c2ccc(Cl)cc2)cc1 [4'-OH PCB3]"
measured_property = "activity at 100 µM"
units_label = "%"
measured = 0

[[record]]
compound = "COc1ccc(-c2ccc(Cl)cc2)cc1 [4'-OMe PCB3]"
measured_property = "activity at 100 µM"
units_label = "%"
measured = 208

[[record]]
compound = "O=S(=O)(O)Oc1ccc(-c2cccc(Cl)c2)cc1Cl [4-yl PCB 11 sulfate]"
measured_property = "activity at 100 µM"
units_label = "%"
measured = 15.1


###

tested on: HUVECs; test: High-content imaging cytotoxicity in HUVECs, 24 h; format: cell-based, human; settings: Homo sapiens, HUVEC, 24 h, HUVECs, 24 hrs; top concentration 100.00 µM; read-out: huvec.tc.24hrs POD
Structures can show the parent of a compound that is named as a salt.
Measured Property: minimal effective concentration

[[record]]
compound = "Oc1ccc(-c2cccc(Cl)c2)cc1Cl"
measured_property = "minimal effective concentration"
measured = "1.37 µM"

[[record]]
compound = "O=S(=O)(O)Oc1cc(-c2ccccc2)ccc1Cl [3-yl PCB 3 sulfate]"
measured_property = "minimal effective concentration"
measured = "100 µM"

[[record]]
compound = "Oc1ccc(O)c(-c2ccc(Cl)cc2)c1"
measured_property = "minimal effective concentration"
measured = "0.12 µM"

[[record]]
compound = "O=S(=O)(O)Oc1cc(Cl)ccc1-c1ccccc1 [2-yl PCB 3 sulfate]"
measured_property = "minimal effective concentration"
measured = "100 µM"

